# TARGET_SYSTEM: acetylcholine receptor
# ASSAY_TEXT: SPR, AchR immobilized on CM5 chip, peptide 10 uM
PARAMETER: Binding affinity (RU)

Look over these answered cases.
- BINDER: "RKSVQR [6mer-1-361]"
  PARAMETER: "Binding affinity (RU)"
  MEAS_VALUE: 127
- BINDER: "RRLLQR [6mer-1-388]"
  PARAMETER: "Binding affinity (RU)"
  MEAS_VALUE: 142
- BINDER: "KKTCER [6mer-1-785]"
  PARAMETER: "Binding affinity (RU)"
  MEAS_VALUE: 19
- BINDER: "KRMMPK [6mer-1-789]"
  PARAMETER: "Binding affinity (RU)"
  MEAS_VALUE: 19
- BINDER: "KKVFLK [6mer-1-354]"
  PARAMETER: "Binding affinity (RU)"
  MEAS_VALUE: 153
- BINDER: "KKQQSK [6mer-1-347]"
  PARAMETER: "Binding affinity (RU)"
  MEAS_VALUE: 126
- BINDER: "RKRQSK [6mer-1-364]"
  PARAMETER: "Binding affinity (RU)"
  MEAS_VALUE: 124
- BINDER: "KRLILR [6mer-1-397]"
  PARAMETER: "Binding affinity (RU)"
  MEAS_VALUE: 125
- BINDER: "RKPDDK [6mer-1-791]"
  PARAMETER: "Binding affinity (RU)"
  MEAS_VALUE: 13
- BINDER: "RKPHWR [6mer-1-749]"
  PARAMETER: "Binding affinity (RU)"
  MEAS_VALUE: 33

A: KKATDK [6mer-1-736]
B: RRVQTR [6mer-1-392]
C: KRASPK [6mer-1-765]
QUERY: Arrange the 3 binders by rising Binding affinity (RU), starting with the smallest. Give your ranking as a list of the labels in the requested order.
RESULT: A, C, B
(A: 15 RU, C: 25 RU, B: 135 RU)

a: RKCTIR [6mer-1-766]
b: KRLYSK [6mer-1-349]
QUERY: Please indicate which item has the smaller measured Binding affinity (RU): a versus b Pick one; state its label.
RESULT: a
(a: 15 RU, b: 123 RU)

1: RRDCAK [6mer-1-763]
2: KRTPDK [6mer-1-767]
QUERY: Which of the two gives a bigger number for Binding affinity (RU): 1 or 2 ? Pick one; state its label.
RESULT: 2
(2: 18 RU, 1: 12 RU)

Data provenance: patent US20250011363A1
